This listing pairs molecules with measured Hill coefficient (n).
- target.of.assay: IN1−288 F185K/C250S (HIV-1 integrase) (Human immunodeficiency virus type 1 group M subtype B, UniProt P12497, C1427S/F1332K)
- Construct: we first expressed and purified IN1−288 F185K/C250S as previously described; made in house
- test.description: Fluorescence anisotropy binding of fluorescein-labeled IN181−188 peptides to IN
- measurement.conditions: fluorescence anisotropy; IN titrated into 100 nM fluorescein-labeled peptide; 10°C; ionic strength 1 M (NaCl); fit to Hill equation
Give your answer as a number; write no unit.

CC[C@H](C)[C@@H]1NC(=O)[C@H](Cc2ccccc2)NC(=O)CN(C(=O)[C@H](Cc2c[nH]c3ccccc23)NC(=O)c2ccc3c(c2)C(=O)OC32c3ccc(O)cc3Oc3cc(O)ccc32)Cc2cn(nn2)CCN(CC(N)=O)C(=O)[C@H](CCCCN)NC(=O)[C@H](CCCNC(=N)N)NC(=O)[C@H](CCCCN)NC(=O)[C@H](Cc2ccccc2)NC(=O)[C@H](CC(N)=O)NC(=O)[C@H](Cc2c[nH]cn2)NC1=O    2.5

Incoming: // query Hill coefficient (n) value for entry `CC[C@H](C)[C@@H]1NC(=O)[C@H](Cc2ccccc2)NC(=O)CN(C(=O)[C@H](Cc2c[nH]c3ccccc23)NC(=O)c2ccc3c(c2)C(=O)OC32c3ccc(O)cc3Oc3cc(O)ccc32)CCn2cc(nn2)CN(CC(N)=O)C(=O)[C@H](CCCCN)NC(=O)[C@H](CCCNC(=N)N)NC(=O)[C@H](CCCCN)NC(=O)[C@H](Cc2ccccc2)NC(=O)[C@H](CC(N)=O)NC(=O)[C@H](Cc2c[nH]cn2)NC1=O`
Outgoing: 2.8

====

- target.of.assay: IN1−288 F185K/C250S (HIV-1 integrase) (Human immunodeficiency virus type 1 group M subtype B, UniProt P12497, C1427S/F1332K)
- Construct: we first expressed and purified IN1−288 F185K/C250S as previously described; made in house
- test.description: Fluorescence anisotropy binding of fluorescein-labeled IN181−188 peptides to IN
- measurement.conditions: fluorescence anisotropy; IN titrated into 100 nM fluorescein-labeled peptide; 10°C; ionic strength 1 M (NaCl); fit to Hill equation
Residues, ends and D or L forms follow the SMILES beside them. *: point of attachment. 5FAM = O=C1OC2(c3ccc(O)cc3Oc3cc(O)ccc32)c2ccc(C(=O)*)cc21
Below, each entry is listed alongside its reported Hill coefficient (n).
Respond numerically, and do not add a unit to the figure.

Use these answered entries as a reference point.
CC[C@H](C)[C@@H]1NC(=O)[C@H](Cc2ccccc2)NC(=O)CN(C(=O)[C@H](Cc2c[nH]c3ccccc23)NC(=O)c2ccc3c(c2)C(=O)OC32c3ccc(O)cc3Oc3cc(O)ccc32)Cc2cn(nn2)CCCN(CC(N)=O)C(=O)[C@H](CCCCN)NC(=O)[C@H](CCCNC(=N)N)NC(=O)[C@H](CCCCN)NC(=O)[C@H](Cc2ccccc2)NC(=O)[C@H](CC(N)=O)NC(=O)[C@H](Cc2c[nH]cn2)NC1=O    3.8
CC[C@H](C)[C@@H]1NC(=O)[C@H](Cc2ccccc2)NC(=O)CN(C(=O)[C@H](Cc2c[nH]c3ccccc23)NC(=O)c2ccc3c(c2)C(=O)OC32c3ccc(O)cc3Oc3cc(O)ccc32)CCCn2cc(nn2)CN(CC(N)=O)C(=O)[C@H](CCCCN)NC(=O)[C@H](CCCNC(=N)N)NC(=O)[C@H](CCCCN)NC(=O)[C@H](Cc2ccccc2)NC(=O)[C@H](CC(N)=O)NC(=O)[C@H](Cc2c[nH]cn2)NC1=O    3.8

The record that follows has no Hill coefficient (n) shown yet.
Incoming: Tell me the measured Hill coefficient (n) of CC[C@H](C)[C@H](NC(=O)[C@H](Cc1ccccc1)NC(=O)CNC(=O)[C@H](Cc1c[nH]c2ccccc12)NC(=O)c1ccc2c(c1)C(=O)OC21c2ccc(O)cc2Oc2cc(O)ccc21)C(=O)N[C@@H](Cc1c[nH]cn1)C(=O)N[C@@H](CC(N)=O)C(=O)N[C@@H](Cc1ccccc1)C(=O)N[C@@H](CCCCN)C(=O)N[C@@H](CCCNC(=N)N)C(=O)N[C@@H](CCCCN)C(=O)NCC(N)=O [Fl-WT IN181−188, reference compound] (5FAM-WGFIHNFKRKG-NH2; N-terminus assumed) , please.
Outgoing: 3.6
